Target of assay: rat CYP2B1 (Rattus norvegicus)
Sequence (P00176 1-491): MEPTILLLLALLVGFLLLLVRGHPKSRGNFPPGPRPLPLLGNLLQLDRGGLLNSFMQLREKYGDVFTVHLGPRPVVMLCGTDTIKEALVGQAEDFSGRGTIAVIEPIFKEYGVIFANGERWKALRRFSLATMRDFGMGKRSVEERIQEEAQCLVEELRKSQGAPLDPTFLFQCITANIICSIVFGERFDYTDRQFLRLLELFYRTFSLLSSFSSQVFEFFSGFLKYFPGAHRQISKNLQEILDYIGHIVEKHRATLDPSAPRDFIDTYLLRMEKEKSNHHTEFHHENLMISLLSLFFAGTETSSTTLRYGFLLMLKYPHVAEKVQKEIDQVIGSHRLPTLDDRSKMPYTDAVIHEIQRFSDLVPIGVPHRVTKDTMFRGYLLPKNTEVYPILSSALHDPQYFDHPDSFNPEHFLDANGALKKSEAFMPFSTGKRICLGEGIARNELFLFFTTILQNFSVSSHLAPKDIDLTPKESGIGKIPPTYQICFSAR
pIC50: −log10 of the molar value.

{"columns": ["Smiles representation", "Modifier sign", "pIC50"],
 "data": [
  ["CC#Cc1ccc2c(ccc3ccccc32)c1", "<", 5.00],
  ["CC#Cc1cc2cccc3ccc4cccc1c4c32", "=", 5.65],
  ["CCC#Cc1ccc2ccc3cccc4ccc1c2c34", "<", 5.00],
  ["C#Cc1ccc2c(ccc3ccccc32)c1", "=", 6.77],
  ["C#Cc1ccc2ccc3cccc4ccc1c2c34", "=", 7.40],
  ["C#Cc1ccc2ccc3ccccc3c2c1", "=", 6.32],
  ["CC#Cc1cc2ccccc2c2ccccc12", "<", 5.00],
  ["CC#Cc1ccc2ccc3cccc4ccc1c2c34", "=", 6.08],
  ["C#Cc1cc2ccccc2c2ccccc12", "=", 7.15]
]}

###

Target of assay: CYP1A1 (Homo sapiens)
Sequence (P04798 whole entry): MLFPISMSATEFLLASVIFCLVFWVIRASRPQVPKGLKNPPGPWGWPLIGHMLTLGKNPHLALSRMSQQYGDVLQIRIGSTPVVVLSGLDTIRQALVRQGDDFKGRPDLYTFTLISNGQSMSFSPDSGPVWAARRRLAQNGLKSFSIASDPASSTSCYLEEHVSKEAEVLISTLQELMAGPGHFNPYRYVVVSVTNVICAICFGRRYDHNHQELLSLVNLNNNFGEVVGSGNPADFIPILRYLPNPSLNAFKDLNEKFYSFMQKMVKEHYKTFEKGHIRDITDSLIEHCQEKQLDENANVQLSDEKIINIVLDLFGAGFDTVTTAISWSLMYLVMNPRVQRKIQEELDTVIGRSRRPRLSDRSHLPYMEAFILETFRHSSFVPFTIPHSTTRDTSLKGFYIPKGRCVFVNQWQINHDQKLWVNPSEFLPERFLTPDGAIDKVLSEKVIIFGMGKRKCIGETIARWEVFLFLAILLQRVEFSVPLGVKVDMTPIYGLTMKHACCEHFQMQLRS
Method notes: 7-Ethoxyresorufin O-deethylation
Format: biochemical
Experimental conditions: human, pH 7.6, probe 7-ethoxyresorufin

{"columns": ["Smiles representation", "IC50"],
 "data": [
  ["CC#Cc1cc2ccccc2c2ccccc12", "2260 nM"]
]}
